Test: Cell viability assay (CCK-8)
Format: cell-based
Settings: human; HEK293 cells, CCK-8, compound at 100 μM, 48 h incubation; read-out: Cell Viability (%) (N = 3)
Procedure: The viability of HEK293 cells was determined by a CCK-8 assay according to the established protocol. Briefly, 5 × 10^3 cells/well HEK293 cells were cultured in 96-well plates at 37 °C under an atmosphere of 5% CO2 for 24 h and then treated with the tested compounds. […] Absorbance at a wavelength of 450 nm was measured by a microplate reader, which was further used to calculate the cell viability. […]
property_measured: viability at 48 h, 100 µM (%)
Use % as the unit, but write only the number.

# input Quick check: viability at 48 h, 100 µM of CC(=O)OCC12[C@H](OC(C)=O)C(=O)[C@@H]3[C@@H](OC(C)=O)[C@@]14O[C@@]3(C)COC(=O)c1cccnc1CCC(C)(OC(=O)c1ccccc1)C(=O)O[C@@H]([C@H](OC(C)=O)[C@@H]2OC(C)=O)[C@]4(C)O (stereo partly shown) ?
# output 103

# input I am curious: what viability at 48 h, 100 µM value has been reported for CC(=O)OCC12[C@H](OC(C)=O)[C@H](OC(C)=O)[C@@H]3[C@@H](OC(C)=O)[C@@]14O[C@@]3(C)COC(=O)c1cccnc1CCC(C)(OC(=O)c1ccccc1)C(=O)O[C@@H]([C@H](OC(C)=O)[C@@H]2OC(C)=O)[C@]4(C)O (stereo partly shown) ?
# output 110

# input Which viability at 48 h, 100 µM is listed for CC(=O)OCC12[C@H](OC(C)=O)C(=O)[C@@H]3[C@@H](OC(C)=O)[C@@]14O[C@@]3(C)COC(=O)c1cccnc1CCC(C)C(=O)O[C@@H]([C@H](OC(C)=O)[C@@H]2OC(C)=O)[C@]4(C)O (stereo partly shown) ?
# output 100

# input GET /values?readout=viability at 48 h, 100 µM&item= CC(=O)OC[C@]12[C@H](OC(C)=O)[C@H](OC(C)=O)[C@@H]3[C@@H](OC(C)=O)[C@@]14O[C@@]3(C)COC(=O)c1cccnc1CCC(C)(O)C(=O)O[C@@H]([C@H](O)[C@@H]2OC(C)=O)[C@@]4(C)O (stereo partly shown)
# output 102

* * *

I'd appreciate it if you could supply viability at 48 h, 100 µM values for the items below.
assay: Cell viability assay (CCK-8); type: cell-based; conditions: human; HEK293 cells, CCK-8, compound at 100 μM, 48 h incubation; read-out: Cell Viability (%) (N = 3)
Kindly answer with a numeric value in %, unit omitted.

# input If you can, please state the reported viability at 48 h, 100 µM value of CC(=O)OCC12[C@H](OC(C)=O)[C@H](OC(C)=O)[C@@H]3[C@@H](OC(C)=O)[C@@]14O[C@@]3(C)COC(=O)c1cccnc1CCC(C)C(=O)O[C@@H]([C@H](O)[C@@H]2OC(C)=O)[C@]4(C)O (some centres unmarked) .
# output 93.5

# input May I ask what viability at 48 h, 100 µM has been recorded for CC(=O)OCC12[C@H](OC(C)=O)[C@H](OC(C)=O)[C@@H]3[C@@H](O)[C@@]14O[C@@]3(C)COC(=O)c1cccnc1CCC(C)(O)C(=O)O[C@@H]([C@H](OC(=O)c1ccoc1)[C@@H]2OC(C)=O)[C@]4(C)O (some centres unmarked) ?
# output 101

# input Reported viability at 48 h, 100 µM, molecule CC(=O)OC[C@]12[C@H](OC(C)=O)[C@H](OC(C)=O)[C@@H]3[C@@H](OC(C)=O)[C@@]14O[C@@]3(C)COC(=O)c1cccnc1CCC(C)C(=O)O[C@@H]([C@H](OC(=O)c1ccccc1)[C@@H]2OC(C)=O)[C@]4(C)O (some centres unmarked) : ____
# output 103

# input Any idea what its viability at 48 h, 100 µM is? The molecule is CC(=O)OCC12[C@H](OC(C)=O)[C@H](OC(C)=O)[C@@H]3[C@@H](O)[C@@]14O[C@@]3(C)COC(=O)c1cccnc1CCC(C)(O)C(=O)O[C@@H]([C@H](OC(=O)c1ccccc1)[C@@H]2OC(C)=O)[C@]4(C)O (some centres unmarked)
# output 93.8

# input Look up viability at 48 h, 100 µM for this molecule: CC(=O)OCC12C(OC(C)=O)C(=O)C3C(OC(C)=O)C14OC3(C)COC(=O)c1cccnc1CCC(C)(OC(=O)c1ccoc1)C(=O)OC(C(OC(C)=O)C2OC(C)=O)C4(C)O (centres unmarked)
# output 99.5
